# EXPERIMENTAL_SYSTEM: GST-cGAS (human) (Homo sapiens, UniProt Q8N884 1-522)
# Sequence (Q8N884 whole entry): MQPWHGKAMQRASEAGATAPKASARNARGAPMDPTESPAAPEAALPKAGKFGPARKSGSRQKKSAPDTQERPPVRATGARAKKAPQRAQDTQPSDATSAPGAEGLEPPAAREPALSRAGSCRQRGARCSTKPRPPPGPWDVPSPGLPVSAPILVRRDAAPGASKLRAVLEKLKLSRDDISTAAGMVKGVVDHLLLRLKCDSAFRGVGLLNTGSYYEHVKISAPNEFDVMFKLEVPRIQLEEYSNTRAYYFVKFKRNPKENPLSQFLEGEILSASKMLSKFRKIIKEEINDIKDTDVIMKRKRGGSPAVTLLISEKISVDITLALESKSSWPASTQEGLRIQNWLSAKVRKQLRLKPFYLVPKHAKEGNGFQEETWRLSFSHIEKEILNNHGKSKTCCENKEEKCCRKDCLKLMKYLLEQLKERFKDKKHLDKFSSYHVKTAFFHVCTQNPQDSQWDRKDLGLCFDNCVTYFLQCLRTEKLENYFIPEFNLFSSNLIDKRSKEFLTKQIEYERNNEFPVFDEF
# TEST_METHOD_NOTES: streptavidin pull-down, WB quantification
METRIC_NAME: Kd

Q) Record request: Kd value, item BRNA:DNA hybrid (BRNA 2/DNA 9) (DNA:RNA) RNA: UUUCAAUUCCUUUUAGGAUUAAUCUUGAAGAUAGAGUUAA DNA: TTAACTCTATCTTCAAGATTAATCCTAAAAGGAATTGAAA
A) ~8.05 nM
